Where do the numbers come from? From PubChem BioAssay AID1159580.

Test: chemical genetic growth profiling, strain panel (AID 1159580);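 also: tested at 20 µM; growth read once vehicle control cultures reached saturation at 30 °C; 1 = growth at the plate median or of vehicle wells; lower values mean less growth of the strain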
Conditions: S. cerevisiae deletion strains, growth OD, locus YOR061W, strain CKA2, active compounds read low
The whole screen tested about 5,500 compounds, of which about 2,000 (36%) were called active. About 18% were inconclusive and are not listed. The list shows a part of the results.
readout: normalized growth
Give bare numbers.

Previously resolved entries follow.
compound	normalized growth
COc1ccccc1N1CCN(C(=O)C(C)c2ccc(CC(C)C)cc2)CC1 (stereo not given)	0.937
COC(=O)C[C@H]1C(C)(C)[C@@H](O)[C@@H]2CC3=C4CC(O)O[C@@H](c5ccoc5)[C@]4(C)CCC3[C@@]1(C)C2=O (stereo not given in full)	1
CC(=O)N1CCCC1C(=O)O (stereo not given)	1.01
CC(C)(C)NCC(O)COc1cccc2c1C[C@H](O)[C@H](O)C2 (stereo not given in full)	1
CC1(C)S[C@@H]2[C@H](NC(=O)[C@@H](N)c3ccc(O)cc3)C(=O)N2[C@H]1C(=O)O	1.02

# map each compound to its normalized growth
1. CC1=CC(=O)C(C(C)C)=CC1=O
2. CN(C)C(=O)C(CCN1CCC(O)(c2ccc(Cl)cc2)CC1)(c1ccccc1)c1ccccc1
3. COc1ccc(N=C2SCC(c3ccc(C)cc3)=NN2CCO)cc1
4. CCCCCC(O)C1C(=O)OC(C)C(O)/C=C/C=C/C=C/C=C/C=C(\C)C(O)CC(O)CC(O)CC(O)CC(O)CC(O)CC1O (stereo not given)
5. CC1(C)S[C@@H]2[C@H](NC(=O)C(C(=O)O)c3ccccc3)C(=O)N2[C@H]1C(=O)O (stereo not given in full)
6. O=S(=O)(c1cc(Cl)ccc1Cl)N1CCc2ccccc2C1
7. O=C(CCCN1CCC(O)(c2ccc(Cl)cc2)CC1)c1ccc(F)cc1

**A:**
[0.98, 0.995, 0.983, 1.01, 0.994, 0.99, 0.942]

Value sought for every listed compound: normalized growth.
1. CO/N=C1/CC(C)(C)Cc2c(-c3ccn(C(=O)Nc4cccc(Cl)c4)n3)sc(SC)c21
2. NC(=O)c1ccc([N+](=O)[O-])cc1Cl

**A:**
1. 0.98
2. 0.951

Batch lookup, normalized growth per entry.
1. C[C@@H]1CCC2[C@](C)(CO)[C@@H](O)CC[C@]2(C)[C@@]12CC[C@@](CO)(CCO)O2 (stereo not given in full)
2. CC(=O)OCC(=O)[C@@]1(O)CCC2C3C[C@H](C)C4=CC(=O)C=CC4(C)C3[C@@H](O)CC21C (stereo not given in full)
3. O=c1c(O)cc([C@H]2Oc3cc(O)cc(O)c3C[C@H]2O)cc2c([C@H]3Oc4cc(O)cc(O)c4C[C@H]3O)cc(O)c(O)c12
4. Cc1c(C(N)=O)cc([N+](=O)[O-])cc1[N+](=O)[O-]
5. CCOC(=O)CC(SP(=S)(OC)OC)C(=O)OCC (stereo not given)
6. COc1cc(C(=O)O)cc(OC)c1OC

**A:**
1: 1; 2: 1; 3: 1.02; 4: 0.99; 5: 1; 6: 1.02
